- Tested on: PC-9
- protocol_text: CCK8 cell viability assay, PC-9
- Assay type: cell-based, Human
- experimental_setup: PC9, 20 µM, 48 h, CCK8; control = 100%
Label true when Cell viability (100%) is strictly below 10%; at or above that, label false.

>  <mol_smiles>
COc1c2n(cc(C(=O)Nc3cccc(-c4cn(-c5ccccc5C(F)(F)F)nn4)c3)c1=O)C[C@@H]1OCC[C@@H](C)N1C2=O

>  <label>
false

$$$$

Task: Report whether reported Cell viability (100%) is lower than 10% (strictly) for COc1c2n(cc(C(=O)Nc3cccc(-c4cn(-c5c(C)cc(C)cc5C)nn4)c3)c1=O)C[C@@H]1OCC[C@@H](C)N1C2=O
Result: false

Task: // query: COc1c2n(cc(C(=O)Nc3cccc(-c4cn(-c5cc(C(F)(F)F)cc(C(F)(F)F)c5)nn4)c3)c1=O)C[C@@H]1OCC[C@@H](C)N1C2=O
Result: false

Task: // query: COc1c2n(cc(C(=O)Nc3cccc(-c4cn(-c5ccccc5F)nn4)c3)c1=O)C[C@@H]1OCC[C@@H](C)N1C2=O
Result: false

Task: // query: COc1c2n(cc(C(=O)Nc3cccc(-c4cn(-c5ccc(C(F)(F)F)cc5)nn4)c3)c1=O)C[C@@H]1OCC[C@@H](C)N1C2=O
Result: false

Task: // query: COc1ccccc1-n1cc(-c2cccc(NC(=O)c3cn4c(c(OC)c3=O)C(=O)N3[C@H](C)CCO[C@H]3C4)c2)nn1
Result: true

----------
- Test system: A549
- protocol_text: CCK8 cell viability assay, A549
- Assay type: cell-based, Human
- experimental_setup: A549, 20 µM, 48 h, CCK8; control = 100%
- Description: At first, CCK8 assay was carried out to evaluate the anti-proliferative activity of dolutegravir-1,2,3-triazole derivatives against different cancer cell lines. The results of cell viability of three lung cancer cell lines A549, PC-9 and H460 in the presence of compounds 9 and 10 are summarized in Table 2. Cells were treated with different compounds at the concentration of 20 µM for 48 h. […] Absorbance was measured using a microplate spectrophotometer (Thermo) at 450 nm. […]
Label Y when Cell viability (100%) is strictly below 80%; at or above that, label N.

Below are worked cases with known answers.
>  <molecule>
COc1c2n(cc(C(=O)Nc3cccc(-c4cn(-c5c(C)cc(C)cc5C)nn4)c3)c1=O)C[C@@H]1OCC[C@@H](C)N1C2=O [Compound 9z]

>  <label>
N

$$$$
>  <molecule>
COc1cc([N+](=O)[O-])ccc1-n1cc(-c2cccc(NC(=O)c3cn4c(c(OC)c3=O)C(=O)N3[C@H](C)CCO[C@H]3C4)c2)nn1 [Compound 9b]

>  <label>
N

$$$$
>  <molecule>
COc1c2n(cc(C(=O)Nc3cccc(-c4cn(-c5cccc(C(F)(F)F)c5)nn4)c3)c1=O)C[C@@H]1OCC[C@@H](C)N1C2=O [Compound 9p]

>  <label>
Y

$$$$
>  <molecule>
COc1cccc(Cn2cc(-c3cccc(NC(=O)c4cn5c(c(OC)c4=O)C(=O)N4[C@H](C)CCO[C@H]4C5)c3)nn2)c1 [Compound 10d]

>  <label>
N

$$$$
>  <molecule>
COc1c2n(cc(C(=O)Nc3cccc(-c4cn(Cc5ccccc5Br)nn4)c3)c1=O)C[C@@H]1OCC[C@@H](C)N1C2=O [Compound 10c]

>  <label>
Y

$$$$
>  <molecule>
CCOc1ccc(-n2cc(-c3cccc(NC(=O)c4cn5c(c(OC)c4=O)C(=O)N4[C@H](C)CCO[C@H]4C5)c3)nn2)cc1 [Compound 9 h]

>  <label>
Y

$$$$
>  <molecule>
COc1c2n(cc(C(=O)Nc3cccc(-c4cn(-c5ccccc5Cl)nn4)c3)c1=O)C[C@@H]1OCC[C@@H](C)N1C2=O [Compound 9v]

>  <label>
Y

$$$$
>  <molecule>
COc1c2n(cc(C(=O)Nc3cccc(-c4cn(-c5ccc(F)cc5)nn4)c3)c1=O)C[C@@H]1OCC[C@@H](C)N1C2=O [Compound 9 g]

>  <label>
N

$$$$
>  <molecule>
CCc1ccc(-n2cc(-c3cccc(NC(=O)c4cn5c(c(OC)c4=O)C(=O)N4[C@H](C)CCO[C@H]4C5)c3)nn2)cc1 [Compound 9 m]

>  <label>
Y

$$$$

Task: Report whether reported Cell viability (100%) is lower than 80% (strictly) for COc1c2n(cc(C(=O)Nc3cccc(-c4cn(-c5ccccc5F)nn4)c3)c1=O)C[C@@H]1OCC[C@@H](C)N1C2=O [Compound 9a]
Result: N

----------
Recorded Cell viability (100%) values for a group of molecules are listed next.
- Test system: PC-9
- protocol_text: CCK8 cell viability assay, PC-9
- Format: cell-based, Human
- experimental_setup: PC9, 20 µM, 48 h, CCK8; control = 100%
Your answer should be a plain number; it is taken to be in %.

>  <molecule>
COc1c2n(cc(C(=O)Nc3cccc(-c4cn(-c5ccc(C(C)(C)C)cc5)nn4)c3)c1=O)C[C@@H]1OCC[C@@H](C)N1C2=O

>  <Cell viability (100%)>
59.44

$$$$

Task: Which Cell viability (100%) reading was recorded for the molecule COc1c2n(cc(C(=O)Nc3cccc(-c4cn(-c5ccccc5Br)nn4)c3)c1=O)C[C@@H]1OCC[C@@H](C)N1C2=O ?
Result: 43.88

Task: // query: COc1c2n(cc(C(=O)Nc3cccc(-c4cn(Cc5cc(Br)cc(Br)c5)nn4)c3)c1=O)C[C@@H]1OCC[C@@H](C)N1C2=O [Compound 10a]
Result: 103.57

Task: // query: COc1c2n(cc(C(=O)Nc3cccc(-c4cn(Cc5ccccc5)nn4)c3)c1=O)C[C@@H]1OCC[C@@H](C)N1C2=O [Compound 10b]
Result: 96.85

Task: // query: COc1cc([N+](=O)[O-])ccc1-n1cc(-c2cccc(NC(=O)c3cn4c(c(OC)c3=O)C(=O)N3[C@H](C)CCO[C@H]3C4)c2)nn1
Result: 104.86

Task: // query: COc1c2n(cc(C(=O)Nc3cccc(-c4cn(Cc5ccccc5F)nn4)c3)c1=O)CC1OCCC(C)N1C2=O (stereo not shown) [Compound 10f]
Result: 61.10

Task: // query: COc1c2n(cc(C(=O)Nc3cccc(-c4cn(Cc5ccccc5C(F)(F)F)nn4)c3)c1=O)CC1OCCC(C)N1C2=O (stereo not shown)
Result: 66.77

Task: // query: COc1c2n(cc(C(=O)Nc3cccc(-c4cn(-c5cccc(C)c5)nn4)c3)c1=O)C[C@@H]1OCC[C@@H](C)N1C2=O
Result: 8.80

Task: // query: COc1c2n(cc(C(=O)Nc3cccc(-c4cn(-c5ccccc5I)nn4)c3)c1=O)C[C@@H]1OCC[C@@H](C)N1C2=O
Result: 55.21

Task: // query: COc1c2n(cc(C(=O)Nc3cccc(-c4cn(-c5ccccc5C)nn4)c3)c1=O)C[C@@H]1OCC[C@@H](C)N1C2=O
Result: 65.73

Task: // query: COc1c2n(cc(C(=O)Nc3cccc(-c4cn(-c5cc(C(F)(F)F)ccc5C(F)(F)F)nn4)c3)c1=O)C[C@@H]1OCC[C@@H](C)N1C2=O
Result: 18.17

Task: // query: COc1c2n(cc(C(=O)Nc3cccc(-c4cn(Cc5cccc(Br)c5)nn4)c3)c1=O)C[C@@H]1OCC[C@@H](C)N1C2=O [Compound 10e]
Result: 49.85

Task: // query: COc1c2n(cc(C(=O)Nc3cccc(-c4cn(-c5cccc([N+](=O)[O-])c5C)nn4)c3)c1=O)C[C@@H]1OCC[C@@H](C)N1C2=O
Result: 24.05

----------
- Test system: H460
- protocol_text: CCK8 cell viability assay, H460
- Assay type: cell-based, Human
- experimental_setup: H460, 20 µM, 48 h, CCK8; control = 100%
Label TRUE when Cell viability (100%) is strictly below 30%; at or above that, label FALSE.

Below are worked cases with known answers.
>  <compound>
COc1cccc(Cn2cc(-c3cccc(NC(=O)c4cn5c(c(OC)c4=O)C(=O)N4[C@H](C)CCO[C@H]4C5)c3)nn2)c1 [Compound 10d]

>  <label>
FALSE

$$$$
>  <compound>
COc1cc([N+](=O)[O-])ccc1-n1cc(-c2cccc(NC(=O)c3cn4c(c(OC)c3=O)C(=O)N3[C@H](C)CCO[C@H]3C4)c2)nn1

>  <label>
FALSE

$$$$
>  <compound>
COc1c2n(cc(C(=O)Nc3cccc(-c4cn(Cc5ccccc5F)nn4)c3)c1=O)CC1OCCC(C)N1C2=O (stereo not drawn) [Compound 10f]

>  <label>
FALSE

$$$$
>  <compound>
COc1c2n(cc(C(=O)Nc3cccc(-c4cn(-c5ccccc5C)nn4)c3)c1=O)C[C@@H]1OCC[C@@H](C)N1C2=O

>  <label>
FALSE

$$$$
>  <compound>
COc1c2n(cc(C(=O)Nc3cccc(-c4cn(-c5ccccc5C(F)(F)F)nn4)c3)c1=O)C[C@@H]1OCC[C@@H](C)N1C2=O

>  <label>
FALSE

$$$$
>  <compound>
CCc1ccc(-n2cc(-c3cccc(NC(=O)c4cn5c(c(OC)c4=O)C(=O)N4[C@H](C)CCO[C@H]4C5)c3)nn2)cc1

>  <label>
FALSE

$$$$
>  <compound>
CCc1ccccc1-n1cc(-c2cccc(NC(=O)c3cn4c(c(OC)c3=O)C(=O)N3[C@H](C)CCO[C@H]3C4)c2)nn1

>  <label>
TRUE

$$$$
>  <compound>
COc1c2n(cc(C(=O)Nc3cccc(-c4cn(Cc5ccccc5C)nn4)c3)c1=O)CC1OCCC(C)N1C2=O (stereo not drawn)

>  <label>
FALSE

$$$$
>  <compound>
COc1c2n(cc(C(=O)Nc3cccc(-c4cn(-c5ccccc5F)nn4)c3)c1=O)C[C@@H]1OCC[C@@H](C)N1C2=O

>  <label>
FALSE

$$$$
>  <compound>
COc1ccccc1-n1cc(-c2cccc(NC(=O)c3cn4c(c(OC)c3=O)C(=O)N3[C@H](C)CCO[C@H]3C4)c2)nn1

>  <label>
TRUE

$$$$

Let's switch to this compound now.
Task: Report whether reported Cell viability (100%) is lower than 30% (strictly) for COc1c2n(cc(C(=O)Nc3cccc(-c4cn(Cc5ccccc5Br)nn4)c3)c1=O)C[C@@H]1OCC[C@@H](C)N1C2=O [Compound 10c]
Result: FALSE
